pKi: −log10 of the molar value.
pKi tested on UniProtKB P56481: recorded values
metric: pKi

Illustrative cases are given below, each with its answer.
compound: O=C(N[C@H](CN[C@H](CO)Cc1ccccc1)Cc1c[nH]c2ccccc12)OC1C2CC3CC(C2)CC1C3 (stereo partly shown) [Example 2]
pKi: 5.95
--
compound: C[C@](Cc1c[nH]c2ccccc12)(NC(=O)OC1C2CC3CC(C2)CC1C3)C(=S)NCCc1ccccc1 (stereo partly shown) [Example 9]
pKi: 6.09
--
compound: C[C@](Cc1c[nH]c2ccccc12)(NC(=O)OC1C2CC3CC(C2)CC1C3)C(=O)NCCC(=O)N[C@@H](Cc1ccccc1)C(=O)O (stereo partly shown) [Example 33]
pKi: 7.66
--
compound: C[C@@](Cc1c[nH]c2ccccc12)(NC(=O)OC1C2CC3CC(C2)CC1C3)C(=O)NCCC(=O)N[C@@H](Cc1ccccc1)C(N)=O (stereo partly shown) [Example 27]
pKi: 6.04

[a] C[C@](CNC(=O)CCCc1ccccc1)(Cc1c[nH]c2ccccc12)NC(=O)OC1C2CC3CC(C2)CC1C3 (stereo partly shown) [Example 19]
[b] C[C@](Cc1c[nH]c2ccccc12)(NC(=O)OC1C2CC3CC(C2)CC1C3)C(=O)NC1CC2CCC1C2 (stereo partly shown) [Example 118]
**Query** Form: Entry with minimum pKi (choose one): a / b Mark your selection by writing its label.
**Result** a
(a: 6.45, b: 7.28)

====

# target.under.test: Central CCK Receptors (Mus musculus, UniProt P56481)
# Sequence (P56481 whole entry): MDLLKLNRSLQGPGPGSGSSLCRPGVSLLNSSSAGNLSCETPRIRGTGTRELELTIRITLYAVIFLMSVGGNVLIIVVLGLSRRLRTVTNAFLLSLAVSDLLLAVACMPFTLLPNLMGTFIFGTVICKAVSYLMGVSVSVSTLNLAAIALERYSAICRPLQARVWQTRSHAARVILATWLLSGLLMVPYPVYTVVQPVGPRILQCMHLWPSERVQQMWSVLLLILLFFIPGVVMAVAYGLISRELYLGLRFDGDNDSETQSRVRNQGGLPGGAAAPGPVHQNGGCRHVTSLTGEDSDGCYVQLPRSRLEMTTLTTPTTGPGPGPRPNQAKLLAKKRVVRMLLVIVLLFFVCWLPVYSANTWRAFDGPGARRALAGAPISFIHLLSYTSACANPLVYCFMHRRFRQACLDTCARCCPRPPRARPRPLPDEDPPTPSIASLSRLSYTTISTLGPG
metric: Ki (nM)

Illustrative cases are given below, each with its answer.
compound: COC[C@@H]1CCCN1NC(=O)[C@@](C)(Cc1c[nH]c2ccccc12)NC(=O)OC1C2CC3CC(C2)CC1C3 (stereo partly shown)
target.under.test: Central CCK Receptors (Mus musculus, UniProt P56481)
Ki (nM): 73

compound: C[C@@](Cc1c[nH]c2ccccc12)(NC(=O)OC1C2CC3CC(C2)CC1C3)C(=O)NCCC(=O)N[C@H](Cc1ccccc1)C(N)=O (stereo partly shown)
target.under.test: Central CCK Receptors (Mus musculus, UniProt P56481)
Ki (nM): 1400

[P] C[C@](Cc1c[nH]c2ccccc12)(NC(=O)OC1C2CC3CC(C2)CC1C3)C(=O)NCCC(=O)N[C@H](Cc1ccccc1)C(=O)O (stereo partly shown)
[Q] C[C@](Cc1c[nH]c2ccccc12)(NC(=O)OC1C2CC3CC(C2)CC1C3)C(=O)NC1CCCCC1C(=O)O (stereo partly shown)
**Query** Which is greater in Ki, the first item P or the second item Q ? Mark your selection by writing its label.
**Result** P
(P: 103 nM, Q: 1 nM)
